Here, each record is paired with measured Residual weight % at different temperatures data.
assay: Thermal stability by Thermogravimetric Analysis (TGA); assay type: physicochemical; conditions: 250 (° C.)
Report only the number, with the unit w % understood.

Given the compound "CCOC(=O)CNC1=C/C(=N/c2ccc(N(C)C)cc2)CC(C)(C)C1" , write its reported Residual weight % at different temperatures.
63.2

----------
experiment: Thermal stability by Thermogravimetric Analysis (TGA); format: physicochemical; conditions: 100 (° C.)
Readout Name: Residual weight % at different temperatures (w %)
Express the result in w % but write the number alone.

CCOC(=O)CNC1=C/C(=N/c2ccc(Oc3ccccc3)cc2)CC(C)(C)C1 ... 99.2
CCOC(=O)CNC1=C/C(=N/c2ccc(N(C)C)cc2)CC(C)(C)C1 ... 95.9

Please indicate Residual weight % at different temperatures recorded for C#Cc1ccc(/N=C2\CC(C)(C)CC3=C2SCC(C(=O)OCC)N3)cc1 (stereo not drawn)
98.7

Provide measured Residual weight % at different temperatures value, entry: "CCOC(=O)CNC1=C/C(=N/c2ccc(Nc3ccccc3)cc2)CC(C)(C)C1"
99.5

Answer with the recorded Residual weight % at different temperatures of CCOC(=O)C1CSC2=C(CC(C)(C)C/C2=N\c2ccc(Cn3cncn3)cc2)N1 (stereo not drawn) only.
95.3

Identify Residual weight % at different temperatures associated with the compound COC(=O)C(Cc1ccccc1)NC1=C/C(=N/c2ccc(F)cc2)CC(C)(C)C1 (stereo not drawn)
99.4

For the compound CCOC(=O)C1CSC2=C(CC(C)(C)C/C2=N\c2ccc(OCc3ccccc3)cc2)N1 (stereo not drawn) , give its reported Residual weight % at different temperatures.
97.8

Supply measured Residual weight % at different temperatures of "CCOC(=O)CNC1=C/C(=N/c2ccc(NC(=O)OC(C)(C)C)cc2)CC(C)(C)C1" in your reply.
98.0

Give the reported Residual weight % at different temperatures for this compound. CCOC(=O)C1CSC2=C(CC(C)(C)C/C2=N\c2ccc(Nc3ccccc3)cc2)N1 (stereo not drawn)
97.2

Identify Residual weight % at different temperatures associated with the compound "CCOC(=O)CNC1=C/C(=N/c2ccc(OCc3ccccc3)cc2)CC(C)(C)C1"
99.3

Determine from records and report Residual weight % at different temperatures for "CCOC(=O)CNC1=C/C(=N/c2ccc(Cn3cncn3)cc2)CC(C)(C)C1"
97.8

Give a short answer stating reported Residual weight % at different temperatures for "CCOC(=O)CNC1=C/C(=N/c2ccc3c(c2)OCCO3)CC(C)(C)C1" .
99.4

Read the entry CCOC(=O)C1CSC2=C(CC(C)(C)C/C2=N\c2ccc(Oc3ccccc3)cc2)N1 (stereo not drawn) and write its reported Residual weight % at different temperatures.
99.0

Give the measured Residual weight % at different temperatures for CCCCCCCCOc1ccc(/N=C2/C=C(NC(Cc3ccccc3)C(=O)OC)CC(C)(C)C2)cc1 (stereo not drawn)
99.3

Annotate the compound "CCOC(=O)CNC1=C/C(=N/c2ccc(OC(F)(F)F)cc2)CC(C)(C)C1" with its measured Residual weight % at different temperatures.
99.5

Retrieve Residual weight % at different temperatures measured for CCOC(=O)C1CSC2=C(CC(C)(C)CC2Nc2ccccc2)N1 (stereo not drawn) and print it.
99.2

Give the value of Residual weight % at different temperatures reported for the following: "CCOC(=O)CNC1=C/C(=N/c2ccccc2)CC(C)(C)C1"
99.4
